# Test system: MS2 coat protein
# ASSAY INFO: apparent Kd, MS2 coat protein; higher = weaker binding; RNA-MaP array; FMN 200 µM where present
# MEASUREMENT PARAMETERS: ligand present: flavin mononucleotide; designed as: ON switch for flavin mononucleotide
// values below are reported apparent Kd
API: value field is a number in nM; no unit string.

query_sequence=ACAGAGCUUGACAUGAGGAUCACCCAUGUUAGAUUGUUAUGUCAGGAUAUUGUCUAGCAACUAGACAAGAAGGGAUGCUCUGUG scale_unit=nM quantitative_readout=56

// fetch apparent Kd; item: "UAAAUUUUGUAAGGAUAUACACGAGAUUCAAGUGUAGAAGGUACUUACAUGAGGAUCACCCAUGUAUACAUGGAUAAUAGAUAU" ; system: MS2 coat protein
141

// fetch apparent Kd; item: "GCACUUACGUUAGGAUAUGUAUCGGAAAACGAUACAGAAGGAAUAUGGGAACAUGAGGAUCACCCAUGUUCCUGAGACAAGUGC" ; system: MS2 coat protein
26.4

// fetch apparent Kd; item: "GUAUGAGCGAUAGGAUAUACUGAGAUUGAAUGGGUAGAAGGAUCUCUUGUGAGGAAGACAUGAGGAUCACCCAUGUCACGGGCC" ; system: MS2 coat protein
175

// fetch apparent Kd; item: "GGGUACAUCGGAGGAUAUCAUGUAAAUACAUGAGGAUCACCCAUGUCGAUGGAGACAUCGGAGAUUGAGAAGGCCGAUCUACCG" ; system: MS2 coat protein
9.94

// fetch apparent Kd; item: "CGGAUCGCAUGAGGAUAUGGUCAGCUUUGCUGACCAGAAGGCAUGUCAUAAGACAUGAGGAUCACCCAUGUAGUUAAGAUCCGA" ; system: MS2 coat protein
46.3

---

// values below are reported apparent Kd
# Tested on: MS2 coat protein
# ASSAY INFO: apparent Kd, MS2 coat protein; higher = weaker binding; RNA-MaP array; FMN 200 µM where present
# MEASUREMENT PARAMETERS: designed as: OFF switch for flavin mononucleotide; no ligand
API: value field is a number in nM; no unit string.

For orientation, consider the following solved cases.
query_sequence=GAUCAACAUGAGGAUCACCCAUGUGAGGAUAUGAUACUAUGUACUUCGGUACAUAGUAUCAGAAGGCAUAUUGA scale_unit=nM quantitative_readout=54.8
query_sequence=GCGGUGAUCCUAGCUCACAUGAGGAUCACCCAUGUGCAGUUCAAGGAUAUACGUUGCCGCUCCGCGUAGAAGGUGAACUCGCUA scale_unit=nM quantitative_readout=43
query_sequence=GCUGACGAUGUAGGAUAUCAGUAUAAUAAAUACUGAGAAGGACAUGAGGAUCACCCAUGUAAUAAACGUCAGCAGAGGAAACUC scale_unit=nM quantitative_readout=16.2

Tell me measured apparent Kd for "UGCCAGUUAGGAUAUGACUCGACAGACAUGAGGAUCACCCAUGUCCGAGUGUGUGUUUUUUCAGAAGGGACGGCCC" please.
25.1

Tell me measured apparent Kd for "CGCUAAUAAAUAGUAAUAAUUGUACAGGAUAUGUUACAUGAGGAUCACCCAUGUAUUGGGUUUAAACAGAAGGGUAUAUUAGCG" please.
261

Tell me measured apparent Kd for "CUAUGUUAGCAGGAUAUGCCAUUAUUCUUUUUCGCAGAAGGGCUUACAUGAGGAUCACCCAUGUUACAUUUCUU" please.
15

Tell me measured apparent Kd for "AGAUGACAAUGUCAUCUUCAACGGACAUGAGGAUCACCCAUGUAGGAUAUGCUACUCAAAGAGUAGCAGAAGGACAUGUGUCUU" please.
23.1

---

# System: MS2 coat protein
# ASSAY INFO: apparent Kd, MS2 coat protein; higher = weaker binding; RNA-MaP array
# MEASUREMENT PARAMETERS: designed as: ON switch for flavin mononucleotide; no ligand
Please note: rule met applies when apparent Kd is 40 nM or greater, and rule not met applies otherwise.

query_sequence=AGGCCAUCCAAGAAGGCUUACAACAUGAGGAUCACCCAUGUCACGGAGAUGUAUAACAUCUACUAAGAGGAUAUUGGGAGAGCU label="rule met"
query_sequence=CCGGGCGCUUAACAGGAUAUAGCAGUACAUACAUGAGGAUCACCCAUGUCUAUCUUGUAAUAAAGCUAGAAGGGUUCAUCCGAGGU label="rule not met"
query_sequence=GCAAAAGCGCUCUAGAGACAUGAGGAUCACCCAUGUGUGGGUAGAAGGUCCUACGUACCAUUAAGGAAGGAUAUACACAUAUAU label="rule met"
query_sequence=UGAGCAUCCCAGAAGGAUAUAUGGUCGUAAACAUGAGGAUCACCCAUGUUCCAUUUAGGACUCAAAUAGAAGGUCUCGGGCCAGAC label="rule not met"
query_sequence=GCAUUCGGAUUAGGAUAUCUACAUCAUUCGUUUGGGAUAGAGCUACAUGAGGAUCACCCAUGUGUAGAGAAGGAAUAUGAACAC label="rule met"
query_sequence=ACUAAACCACAGAAGGAACUGAGUGCGCAAAAGUAAGGAUAUGUAAACAAUAACAUGAGGAUCACCCAUGUGACAGUAAGUUUA label="rule not met"
query_sequence=AACUUUCCCUAGAAGGUCGUGUUACAACAUGAGGAUCACCCAUGUCGCCCUAGGGCUGCUGCCGCGAAGGAUAUAGGUCCGGAG label="rule not met"
query_sequence=UGCUAAAGUGAGAAGGGUGGACCACUCAUCGAGUAUGACACAUGAGGAUCACCCAUGUACGCUCCACAGGAUAUCAAAUUGAGG label="rule met"
query_sequence=AUACCUAGUGAAGGAUAUCCAAAUAACUAUAGAGGAGAAGGACACAUUCUAACAUGAGGAUCACCCAUGUCCCGCCGUCUUACC label="rule not met"
query_sequence=CACUGACAUGAGGAUCACCCAUGUCUCCUGCUUGUAGGAUAUAGGUGGUCGCUGGACAGUCUAGAAGGACAUGUAA label="rule met"

Is apparent Kd for "UGACGUGGUAAGAAGGCAAGAGCAGGGCAGGAUUGAGGAUAUUACGGACAGACAUGAGGAUCACCCAUGUAGAGCCAUAACCGG" at or above 40 nM?
rule not met

Is apparent Kd for "UUAGUAACCACAGGAUAUGCGGACGGGUGAAGGGCAGAAGGGUGGGAGUGCACAUGAGGAUCACCCAUGUAACACGCCAUAUUU" at or above 40 nM?
rule not met

Is apparent Kd for "CAACACGGAGAGAAGGAAGCUGAAACGGUGCACUUAGGAUAUCUUCCGCCAGAAAACAUGAGGAUCACCCAUGUUCAGUUAACG" at or above 40 nM?
rule not met

Is apparent Kd for "AAUUCCUGUAAGAAGGGCGAUAUACAUGAGGAUCACCCAUGUCGUUGGAUUGAAGAAAAUCAGACGCAGGAUAUUAUUGGGAAC" at or above 40 nM?
rule met

Is apparent Kd for "CCGGGCAGUUUAGGAUAUACACGUGAUUCAUGCGUAGAAGGAAAUCACAGAAUAGUUUCCUGGACAUGAGGAUCACCCAUGUAG" at or above 40 nM?
rule met

---

// values below are reported apparent Kd
# Tested on: MS2 coat protein
# ASSAY INFO: apparent Kd, MS2 coat protein; higher = weaker binding; RNA-MaP array; FMN 200 µM where present
# MEASUREMENT PARAMETERS: designed as: OFF switch for flavin mononucleotide; no ligand

For orientation, consider the following solved cases.
query_sequence=GAGCUAUGAGGAUAUGCAUAUAUACGGAUUCGUGUGGUACUACAUGAGGAUCACCCAUGUAGAAGGCGUGGCUG result="19 nM"
query_sequence=UAUAUAUAGUAAGGAUAUGUAUAUAUUUUAUUAACAGAAGGUACUGACAUGAGGAUCACCCAUGUUUUAGUGUGGGCAUGUAGA result="76.7 nM"

Tell me measured apparent Kd for "UCACGGGACUAAGGAUAUACAUGAUCCAUUUUUGUAGAAGGUAGAAUGUUAGAUCAUAAACUAAACAUGAGGAUCACCCAUGUU" please.
23.5 nM

Tell me measured apparent Kd for "ACGUAUAGAGGAUAUACAGAAUAUUACAUGAGGAUCACCCAUGUUCUUCAAUGUAUAUUUGUAGAAGGCUAAUGAA" please.
60.7 nM

---

# Tested on: MS2 coat protein
# ASSAY INFO: apparent Kd, MS2 coat protein; higher = weaker binding; RNA-MaP array; FMN 200 µM where present
# MEASUREMENT PARAMETERS: ligand present: flavin mononucleotide; designed as: OFF switch for flavin mononucleotide
// values below are reported apparent Kd
API: value field is a number in nM; no unit string.

For orientation, consider the following solved cases.
query_sequence=AGUACCAUGUAGAAGGGAUAUCUGAUUCAGAUAUCAGGAUAUACAUGAGGAUCACCCAUGUAAAUGUACUCCAGGAAACUGGAA quantity_name="apparent Kd" quantitative_readout=48
query_sequence=CUCAUGUGAGGAUAUAGUACUUCUUCUAUUAUUAUUGAGUACUAGAAGGCACAUGAGGAUCACCCAUGUAGUAC quantity_name="apparent Kd" quantitative_readout=16.3
query_sequence=ACAUGAGGAUCACCCAUGUUAUCCGGGACUUCAAUUAUUUCUAGAAGGCUGUUUACUUGUUAGUCAGAGGAUAUAGAAUUAAAU quantity_name="apparent Kd" quantitative_readout=12.5
query_sequence=UACUUGUCAGGAUAUCUUACAUUAACAUCGUAGUUACCGUUGGAGAAGGGACAUGAGGAUCACCCAUGUUUGGC quantity_name="apparent Kd" quantitative_readout=54.9
query_sequence=CAUUGGUAAGGAUAUGAAUCGAUCUCAGAAAUGAGAUCGAUUCAGAAGGUACAUGAGGAUCACCCAUGUUGAUG quantity_name="apparent Kd" quantitative_readout=72.9
query_sequence=ACGUUUUUUGAGGAUAUGCGAUAGUUUUAUAUCGUAGAAGGCGAUACAUGAGGAUCACCCAUGUUUAUGGGCAU quantity_name="apparent Kd" quantitative_readout=197
query_sequence=CUGGAUCACGCAGGAUAUUACAUGAGGAUCACCCAUGUCAGGACUGCAAUAUCGUCUCCUCGGUGUGAGAAGGGCGGAAUCAUU quantity_name="apparent Kd" quantitative_readout=27
query_sequence=CCAUUUCUGUAAGGAUAUAUAAACAUGACGAUACAUGAGGAUCACCCAUGUGUAGAAGGUACAAAUACAUAUAAUGCAAUGUUC quantity_name="apparent Kd" quantitative_readout=13
query_sequence=CUGCGUCGUGUUAGGAUAUCCAGCGGUGCGCGCCAGGAGAAGGAACAUGAGGAUCACCCAUGUAAACCGAUGGC quantity_name="apparent Kd" quantitative_readout=13.4
query_sequence=CUUUGGAUGUCAGGAUAUUGAAUCAUGGAUGGUAUCUUACAGUCUUACAUGAGGAUCACCCAUGUCGAGAAGGGAUAUCAGCUC quantity_name="apparent Kd" quantitative_readout=10.5

Tell me measured apparent Kd for "AAUUGACACGUAGGAUAUCGCUCUAAUUAAACACGAGAAGGACGUACAUGAGGAUCACCCAUGUUAAAUGGUGUAGAUAAGUUG" please.
479
